Please respond with reported Ki for every item in the list.
# tgt: A2A adenosine receptors (Sus scrofa, UniProt K9IW67)
# Sequence (K9IW67 1-409): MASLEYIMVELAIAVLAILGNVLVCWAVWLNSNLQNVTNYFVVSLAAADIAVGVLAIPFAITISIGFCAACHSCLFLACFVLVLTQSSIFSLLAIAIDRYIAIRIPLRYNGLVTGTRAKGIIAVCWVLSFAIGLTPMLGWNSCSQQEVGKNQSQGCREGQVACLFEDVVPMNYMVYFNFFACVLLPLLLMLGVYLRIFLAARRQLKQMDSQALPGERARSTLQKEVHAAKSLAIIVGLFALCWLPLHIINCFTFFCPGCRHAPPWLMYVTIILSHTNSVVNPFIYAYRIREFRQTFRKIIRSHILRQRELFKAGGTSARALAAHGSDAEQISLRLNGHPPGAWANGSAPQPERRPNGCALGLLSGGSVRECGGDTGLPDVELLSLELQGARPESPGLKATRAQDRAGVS
# test.details: Competitive radioligand binding, [3H]ZM241385, pig striatum membranes
# condition.notes: [3H]ZM241385, Gpp(NH)p present; read-out: Ki, Pig Strialum (A2A)
Answers are plain numbers, in nM.

Completed entries (count: 5):
compound: Nc1nc(-c2cnn(CCCc3ccccc3)c2)nc2c1ncn2[C@@H]1O[C@H](CO)[C@@H](O)[C@H]1O [CVT-3126]
data.value: 1670
//
compound: N#Cc1ccc(OCC#Cc2nc(N)c3ncn([C@@H]4O[C@H](CO)[C@@H](O)[C@H]4O)c3n2)cc1 [CVT-3101]
data.value: 94
//
compound: CCCCC#Cc1nc(N)c2ncn([C@@H]3O[C@H](C(=O)NCC)[C@@H](O)[C@H]3O)c2n1 [HENECA, 2-hexynyladenosine-5′-N-ethyl-, reference compound]
data.value: 7.96
//
compound: Cc1ccc(-c2nc(N)c3ncn([C@@H]4O[C@H](CO)[C@@H](O)[C@H]4O)c3n2)s1 [CVT-3100]
data.value: 697
//
compound: Nc1nc(C#CCOc2ccccc2)nc2c1ncn2C1O[C@@H](CO)[C@H](O)[C@@H]1O (stereo partly drawn) [CVT-2995]
data.value: 14.4

Field: Ki. Fill in for each record below.
1. Nc1nc(-c2cccs2)nc2c1ncn2[C@@H]1O[C@H](CO)[C@@H](O)[C@H]1O [CVT-3003]
2. Nc1nc(-c2cnn(Cc3ccccc3)c2)nc2c1ncn2C1O[C@@H](CO)[C@H](O)[C@@H]1O (stereo partly drawn) [CVT-3032]
3. CCCCCCC#Cc1nc(N)c2ncn([C@@H]3O[C@H](CO)[C@@H](O)[C@H]3O)c2n1 [YT-146, reference compound]
4. Cc1ccc(-c2cnn(-c3nc(N)c4ncn([C@@H]5O[C@H](CO)[C@@H](O)[C@H]5O)c4n3)c2)cc1
5. Nc1nc(C#CCOc2ccccc2Cc2ccccc2)nc2c1ncn2[C@@H]1O[C@H](CO)[C@@H](O)[C@H]1O [CVT-3006]
6. CCOC(=O)c1cnn(-c2nc(N)c3ncn([C@@H]4O[C@H](CO)[C@@H](O)[C@H]4O)c3n2)c1 [CVT-3127]
7. C[C@H](Cc1ccccc1)Nc1ncnc2c1ncn2[C@@H]1O[C@H](CO)[C@@H](O)[C@H]1O [R-PIA, Phenylisopropyladenosine, reference compound]

[1010, 1590, 16.3, 502, 64, 64, 1110]
